- Tested on: A549/ATCC NSCLC
- measurement_description: NCI-60 one-dose screen, 48 h (100 = growth as untreated, 0 = no growth, -100 = all killed)
- experimental_conditions: 10 µM
This is part of a sample that, as a whole, favours compounds with a hit. Of some 83,000 tested, about 20% had one in any assay.
// classify: if (growth < 90%) Yes else No

Here's what some known entries look like.
CC1=C(N2CCOCC2)C(N2CCOCC2)=C(C)C(=O)C1=O	No
CSc1nn(-c2ccccc2)c2ncnc(Oc3ccc(C)cc3)c12	Yes

Q: Please indicate whether the reported growth of O=C(O)C(SC(C(=O)O)c1ccccc1)c1ccccc1 (centres undefined) is strictly below 90%.
A: No

Q: Please indicate whether the reported growth of "O=C1CC[C@@H]2CCCC[C@@H]2C1" is strictly below 90%.
A: No

Q: Please indicate whether the reported growth of "Nc1ncn([C@@H]2O[C@H](CO)[C@@H](O)[C@H]2O)c(=O)n1" is strictly below 90%.
A: Yes

Q: Please indicate whether the reported growth of "N#CCCN1C/C(=C/c2ccc(Br)cc2)C(=O)/C(=C/c2ccc(Br)cc2)C1" is strictly below 90%.
A: Yes

Q: Please indicate whether the reported growth of "COC(=O)[C@@H]1[C@H](O)[C@H](C)[C@H](O)[C@@](C)(O)/C=C\C=C(C)C(=O)Nc2c(C)c(OC(C)=O)c3c(c2O)C(=O)C(C)=C2OCOC(=C23)C(C)=C[C@@](C)(O)[C@H](O)[C@@H](C)[C@H]1OC(C)=O" is strictly below 90%.
A: No
